Test: growth inhibitors of tim10-1 mutant yeast, primary screen, luminescence, uHTS (AID 463190);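 note: mutant grown at 25 °C; 0% = DMSO wells with yeast and 100% = wells holding no yeast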
Conditions: S. cerevisiae tim10-1 ts strain growth, BacTiter-Glo, 24 h; at 20 µM; active compounds read high
Among all 330,000 compounds or so, about 7,300 (2.2%) were called active. The list comes from a sample in which actives are over-represented; it also holds close analogues and randomly drawn compounds.
// reported inhibition per item

[
  {
    "COMPOUND": "COc1ccc(NC(=O)c2sc(N3CCOCC3)nc2-c2ccccc2)c(OC)c1",
    "RESULT_UNIT": "%",
    "inhibition": 33.9
  },
  {
    "COMPOUND": "O=S(=O)(Nc1ccc2nc(N3CCOCC3)sc2c1)c1ccccc1",
    "RESULT_UNIT": "%",
    "inhibition": 3.87
  },
  {
    "COMPOUND": "CN(C)CCCO/N=C(\\c1ccccc1)c1ccncc1",
    "RESULT_UNIT": "%",
    "inhibition": -3.73
  },
  {
    "COMPOUND": "COc1ccccc1OCCNCC(O)COc1cccc2[nH]c3ccccc3c12 (stereo unspecified)",
    "RESULT_UNIT": "%",
    "inhibition": 22.3
  },
  {
    "COMPOUND": "CCOC(=O)C1CCCN(S(=O)(=O)c2ccc3c(c2)C(C)(C)C(=O)N3C)C1 (stereo unspecified)",
    "RESULT_UNIT": "%",
    "inhibition": -10.8
  },
  {
    "COMPOUND": "O=C(Nc1ccncc1)c1ccccc1[N+](=O)[O-]",
    "RESULT_UNIT": "%",
    "inhibition": 0.557
  }
]

---

Recorded inhibition, one value per entry.
Experiment: growth inhibitors of tim10-1 mutant yeast, primary screen, luminescence, uHTS (AID 463190);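 note: mutant grown at 25 °C; 0% = DMSO wells with yeast and 100% = wells holding no yeast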
Details: S. cerevisiae tim10-1 ts strain growth, BacTiter-Glo, 24 h; at 20 µM; active compounds read high
The whole screen tested about 330,000 compounds, of which about 7,300 (2.2%) were called active. Shown is part of a subset that was picked to be rich in actives.

[
  {
    "COMPOUND": "Cc1ccc(Nc2nc(-c3ccc(O)cc3O)cs2)nc1",
    "inhibition [%]": 43.9
  },
  {
    "COMPOUND": "Cc1ccc(-c2csc(NCCc3nc4cc(Cl)c(Cl)cc4n3CCOCCO)n2)cc1",
    "inhibition [%]": 33.4
  },
  {
    "COMPOUND": "Cc1cc2cc(CNC(=O)c3cccs3)ccc2[nH]1",
    "inhibition [%]": -2.64
  },
  {
    "COMPOUND": "O=C(O)CSCc1ccc(C(=O)O)o1",
    "inhibition [%]": 3.55
  },
  {
    "COMPOUND": "CCOC(=O)C1=C(c2ccccc2)NC(=O)NC1c1cc(OC)c(OC)cc1OC (configuration not stated)",
    "inhibition [%]": 2.13
  },
  {
    "COMPOUND": "CCc1cccc(CC)c1NC(=S)Nc1ccc2cn[nH]c2c1",
    "inhibition [%]": 18.2
  },
  {
    "COMPOUND": "Cc1ccc(NC(=O)Cc2nc(COC(=O)C(C)NS(=O)(=O)c3ccc(C)cc3)cs2)cc1 (configuration not stated)",
    "inhibition [%]": 15.7
  },
  {
    "COMPOUND": "Cn1nc(C(F)(F)F)c(C(=O)Nc2cccc(C(F)(F)F)c2)c1SCc1ccc(Cl)cc1",
    "inhibition [%]": 36
  },
  {
    "COMPOUND": "COC(=O)c1c(NC(=O)COc2ccc(Cl)cc2Cl)sc2c1CC(C)(C)NC2(C)C",
    "inhibition [%]": 43.6
  },
  {
    "COMPOUND": "O=C(COC(=O)c1ccc(F)cc1)NCCCc1ccccc1",
    "inhibition [%]": 24.1
  },
  {
    "COMPOUND": "CCc1nn(CCCC(=O)Nc2ccc(C)cc2C)c(=O)c2cc3occc3n12",
    "inhibition [%]": 41.6
  },
  {
    "COMPOUND": "C=CS(=O)c1sc(Cl)c(N2CCOCC2)c1[N+](=O)[O-] (configuration not stated)",
    "inhibition [%]": 79.3
  },
  {
    "COMPOUND": "COc1ccc(CN2CC[C@H]3C=CC[C@@H](C(=O)N4CCOCC4)[C@H]3C2=O)cc1OC",
    "inhibition [%]": 6.76
  },
  {
    "COMPOUND": "Cc1cc(C)n(Cc2cnc(N3CCOCC3)s2)n1",
    "inhibition [%]": 10.6
  },
  {
    "COMPOUND": "CCc1cccc(CC)c1NC(=S)NCc1ccc2[nH]c(C)cc2c1",
    "inhibition [%]": 48.6
  },
  {
    "COMPOUND": "O=C(NCCc1ccccc1)C1CCC(Cn2c(=O)c3ccccc3n(Cc3cccnc3)c2=O)CC1 (configuration not stated)",
    "inhibition [%]": 15.4
  },
  {
    "COMPOUND": "O=C(NC1(C(F)(F)F)NC(=O)N(Cc2cccnc2)C1=O)c1ccccc1Cl (configuration not stated)",
    "inhibition [%]": 9.72
  },
  {
    "COMPOUND": "COc1ccc(NC(=O)COC(=O)CNC(=O)C2CCCCC2)cc1",
    "inhibition [%]": 4.06
  },
  {
    "COMPOUND": "COC(=O)c1sccc1NC(=O)COc1ccc(Cl)cc1",
    "inhibition [%]": 7.8
  },
  {
    "COMPOUND": "CCOC(=O)/C=C/CN(C(=O)OC(C)(C)C)S(=O)(=O)N1CC=CC1",
    "inhibition [%]": 17.9
  },
  {
    "COMPOUND": "CN(C(=O)CSc1nnc(C2CC2)n1C)C1CCCc2ccccc21 (configuration not stated)",
    "inhibition [%]": -15.4
  },
  {
    "COMPOUND": "CCc1nn(CCCC(=O)NCc2ccc(C)cc2)c(=O)c2cc3occc3n12",
    "inhibition [%]": 31.1
  }
]

---

Experiment: growth inhibitors of tim10-1 mutant yeast, primary screen, luminescence, uHTS (AID 463190);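 note: mutant grown at 25 °C; 0% = DMSO wells with yeast and 100% = wells holding no yeast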
Settings: S. cerevisiae tim10-1 ts strain growth, BacTiter-Glo, 24 h; at 20 µM; active compounds read high
In all, about 330,000 compounds went through this assay and about 7,300 (2.2%) were called active. The full list was thinned out, with actives kept by preference.
Record Criterion met whenever inhibition is at 10% or higher; record Criterion not met when lower.

[
  {
    "COMPOUND": "COC(=O)C(NS(=O)(=O)c1ccc(F)cc1)c1ccccc1 (stereo unspecified)",
    "LABEL": "Criterion met"
  },
  {
    "COMPOUND": "CS(=O)(=O)N(Cc1ccccc1)c1ccc(C(=O)NN=C2CCCCCC2)cc1",
    "LABEL": "Criterion met"
  },
  {
    "COMPOUND": "COc1ccc(NC(=O)CCCN2C(=O)C(c3ccccc3)Oc3cccnc32)cc1 (stereo unspecified)",
    "LABEL": "Criterion met"
  },
  {
    "COMPOUND": "Cc1cc(C)cc(NC(=O)NC2CCCCCCC2)c1",
    "LABEL": "Criterion met"
  },
  {
    "COMPOUND": "Cc1ccnc2nc(C(=O)OCC(=O)N(CC(C)C)CC(C)C)nn12",
    "LABEL": "Criterion met"
  },
  {
    "COMPOUND": "CCOc1ccccc1/C=c1\\sc2nc(-c3ccco3)nn2c1=O",
    "LABEL": "Criterion met"
  },
  {
    "COMPOUND": "CCC1CCCCN1C(=O)CSc1nc2c(c(=O)n(C)c(=O)n2C)n1C (stereo unspecified)",
    "LABEL": "Criterion not met"
  },
  {
    "COMPOUND": "COc1ccccc1CN(C)C(=O)C1(c2ccc(Cl)cc2)CC1",
    "LABEL": "Criterion not met"
  },
  {
    "COMPOUND": "Cc1csc(NC(=O)C2=COCCO2)n1",
    "LABEL": "Criterion not met"
  },
  {
    "COMPOUND": "Cn1c2ccccc2n2c(=O)c(=O)n(CC(=O)c3ccc(F)cc3)nc12",
    "LABEL": "Criterion not met"
  },
  {
    "COMPOUND": "CS(=O)(=O)n1nc(-c2ccco2)nc1N",
    "LABEL": "Criterion not met"
  }
]

---

Assay: growth inhibitors of tim10-1 mutant yeast, primary screen, luminescence, uHTS (AID 463190);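 note: mutant grown at 25 °C; 0% = DMSO wells with yeast and 100% = wells holding no yeast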
Details: S. cerevisiae tim10-1 ts strain growth, BacTiter-Glo, 24 h; at 20 µM
Hit rate of the full screen: of about 330,000 compounds, about 7,300 (2.2%) were called active.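 Rule for the calls: active = inhibition of at least 40%; inactive = the rest.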 This is one part of a sample in which actives are shown more often than they occur.
Outcomes: active, inactive

[
  {
    "MOLECULE": "CCN(CC(=O)NCc1cccs1)c1nnnn1-c1ccccc1",
    "LABEL": "inactive"
  },
  {
    "MOLECULE": "Cc1cc(C(C)(C)C)n2nc(C)c(-c3ccccc3)c2n1",
    "LABEL": "inactive"
  },
  {
    "MOLECULE": "O=C(ON=C1CCN(S(=O)(=O)c2ccccc2)CC1)c1ccc(Cl)cc1",
    "LABEL": "active"
  },
  {
    "MOLECULE": "Cc1cn(COC/C=C/c2ccccc2)c(=O)[nH]c1=O",
    "LABEL": "inactive"
  },
  {
    "MOLECULE": "COc1ccc(CCNc2cc(C)nc3c(-c4ccc(Cl)cc4)c(C)nn23)cc1OC",
    "LABEL": "active"
  },
  {
    "MOLECULE": "Nc1cccc(-c2cc(-c3ccccc3)nc(-c3cccc(N)c3)n2)c1",
    "LABEL": "inactive"
  },
  {
    "MOLECULE": "Cc1cc(N)n2nc(-c3ccc(C(C)(C)C)cc3)cc2n1",
    "LABEL": "active"
  },
  {
    "MOLECULE": "Cc1c(C(=O)Nc2cccc(Cl)c2)cn2c(nc3ccccc32)c1C#N",
    "LABEL": "inactive"
  },
  {
    "MOLECULE": "Cc1ccccc1C(=O)N1CCC(C(=O)Oc2ccc(C#N)cc2)CC1",
    "LABEL": "inactive"
  },
  {
    "MOLECULE": "Cc1cccc(NS(=O)(=O)c2cccc(C(=O)NNC(=O)c3ccccc3O)c2)c1",
    "LABEL": "inactive"
  },
  {
    "MOLECULE": "c1ccc(-c2cc(-c3ccccc3)[nH]n2)cc1",
    "LABEL": "inactive"
  },
  {
    "MOLECULE": "O=C1Oc2ccccc2C(=O)/C1=C/c1ccccc1O",
    "LABEL": "active"
  },
  {
    "MOLECULE": "COC(=O)COc1ccc(C2NC(=O)NC(C)=C2C(=O)NCc2ccccc2)cc1OC (centres undefined)",
    "LABEL": "inactive"
  },
  {
    "MOLECULE": "O=S(=O)(O)CCN1CCOCC1",
    "LABEL": "inactive"
  },
  {
    "MOLECULE": "COc1ccc(-c2cc(C)nc3nc(N)nn23)cc1",
    "LABEL": "inactive"
  },
  {
    "MOLECULE": "CC(C)c1ccc(S(=O)(=O)NC2CCCC2)cc1",
    "LABEL": "inactive"
  },
  {
    "MOLECULE": "Cc1ccccc1C(=O)NNC(=O)CN1C(=O)c2ccccc2C1=O",
    "LABEL": "inactive"
  },
  {
    "MOLECULE": "COc1ccc2c(c1)O/C(=C\\c1ccccc1O)C2=O",
    "LABEL": "inactive"
  },
  {
    "MOLECULE": "Cc1nc(-c2ccccc2)cn2c1nc1ccccc12",
    "LABEL": "active"
  },
  {
    "MOLECULE": "COC(=O)c1ccc(/C=C2/C(=O)Oc3ccccc32)cc1",
    "LABEL": "inactive"
  },
  {
    "MOLECULE": "O=C(COC(=O)CCCSc1nc2ccccc2[nH]1)Nc1ccc(Oc2ccccc2)cc1",
    "LABEL": "inactive"
  },
  {
    "MOLECULE": "COc1ccc(CCNc2nc(C)cc(C)n2)cc1OC",
    "LABEL": "inactive"
  },
  {
    "MOLECULE": "Cc1[nH]c(=O)c(C(=O)/C=C/c2ccccc2)c2c1CCCC2",
    "LABEL": "active"
  },
  {
    "MOLECULE": "CCOCCn1c(-c2ccccc2)nc2ccccc21",
    "LABEL": "inactive"
  }
]
